- target.or.test.system: Human DP1 receptor (Homo sapiens (Human))
- experiment: Human DP1 inhibitory activity in DP1-expressing cell (PGD2-induced cAMP)
- Assay type: cell-based
- condition.summary: category of cAMP IC50, human DP1 receptor expressing Jurkut cell
pIC50: −log10 of the molar value.
Listed here are molecules together with their documented pIC50.

Here's what some known entries look like.
>>> readout_value("CC1Cc2cc(S(=O)(=O)N3C[C@@H](C)[C@@H](n4nc(CC(=O)O)c5ccccc54)C3)ccc2O1 (stereo partly drawn)")
"> 7.00"
>>> readout_value("CCOc1ccc(S(=O)(=O)N2C[C@@H](C)[C@@H](n3nc(CC(=O)O)c4ccc(C5CCCCC5)cc43)C2)cn1")
"5.30 to 7.00"
>>> readout_value("CC(C)Oc1ccc(S(=O)(=O)N2CC[C@H](n3nc(CC(=O)O)c4ccc(F)cc43)C[C@@H]2C)cc1")
"> 7.00"
>>> readout_value("CCOc1ccc(S(=O)(=O)N2C[C@@H](C)[C@@H](n3nc(CC(=O)O)c4ccccc43)C2)c(C#N)c1")
"> 7.00"

**Query** Item under review: `CCc1ccc(S(=O)(=O)N2C[C@@H](C)[C@@H](n3nc(CC(=O)O)c4ccc(C(F)(F)F)cc43)C2)cc1` . Reported pIC50?
**Result** > 7.00

**Query** Item under review: `CC(C)Oc1ccc(S(=O)(=O)N2C[C@@H](C)[C@@H](n3nc(CC(=O)O)c4ccc(C(F)(F)F)cc43)C2)cc1` . Reported pIC50?
**Result** > 7.00

**Query** Item under review: `Cc1ccc2c(CC(=O)O)nn([C@H]3CN(S(=O)(=O)c4ccc(OC(C)C)cc4)C[C@@H]3C)c2c1` . Reported pIC50?
**Result** > 7.00

**Query** Item under review: `CC(C)Oc1ccc(S(=O)(=O)N2C[C@H](n3nc(CC(=O)O)c4ccc(F)cc43)C[C@H]2CO)cc1` . Reported pIC50?
**Result** 5.30 to 7.00

**Query** Item under review: `CC(C)Oc1ccc(S(=O)(=O)N2CC[C@@H](n3nc(CC(=O)O)c4ccc(F)cc43)[C@@H]2C)cc1` . Reported pIC50?
**Result** 5.30 to 7.00

----------
- target.or.test.system: CRTH2 (Homo sapiens (Human), UniProt Q9Y5Y4)
- Sequence (Q9Y5Y4 whole entry): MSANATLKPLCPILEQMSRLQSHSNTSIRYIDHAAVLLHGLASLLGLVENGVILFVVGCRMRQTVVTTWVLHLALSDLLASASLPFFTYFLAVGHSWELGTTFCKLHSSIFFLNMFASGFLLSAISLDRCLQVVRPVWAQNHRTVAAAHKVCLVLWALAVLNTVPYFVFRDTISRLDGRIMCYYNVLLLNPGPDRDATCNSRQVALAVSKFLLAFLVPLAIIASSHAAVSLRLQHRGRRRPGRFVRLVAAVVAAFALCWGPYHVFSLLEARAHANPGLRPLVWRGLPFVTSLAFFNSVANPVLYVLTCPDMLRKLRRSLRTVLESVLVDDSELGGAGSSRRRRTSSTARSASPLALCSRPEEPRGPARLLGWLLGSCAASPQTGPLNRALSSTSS
- experiment: CRTH2 receptor binding inhibitory activity ([3H]-PGD2 displacement, membranes of CRTH2-expressing K562 cell)
- condition.summary: CRTH2 receptor binding, [3H]-PGD2 displacement, membrane of CRTH2-expressing K562 cell; categorized AAAA/AAA; read-out: Ki
Listed here are compounds together with their documented Ki.

Here's what some known entries look like.
>>> readout_value("C[C@@H]1C[C@@H](n2nc(CC(=O)O)c3ccc(F)cc32)CCN1S(=O)(=O)c1ccc(F)cc1")
"100 to 5000 nM"
>>> readout_value("CCOc1ccc(S(=O)(=O)N2C[C@@H](C)[C@@H](n3nc(C(C)C(=O)O)c4ccccc43)C2)cc1 (stereo partly shown)")
"< 100 nM"
>>> readout_value("CC(C)Oc1ccc(S(=O)(=O)N2C[C@@H](C)[C@@H](n3nc(/C=C/C(=O)O)c4ccc(F)cc43)C2)cc1")
"< 100 nM"
>>> readout_value("C[C@@H]1CN(S(=O)(=O)c2ccc(Cl)cc2)C[C@@H]1n1nc(CC(=O)O)c2ccc(F)cc21")
"< 100 nM"

**Query** What measured Ki is associated with CCOc1ccc(S(=O)(=O)N2C[C@@H](C)[C@@H](n3nc(C(C)(O)C(=O)O)c4ccccc43)C2)cc1 (stereo partly shown) on CRTH2 (Homo sapiens (Human), UniProt Q9Y5Y4)?
**Result** 100 to 5000 nM

**Query** What measured Ki is associated with `C[C@@H]1CN(S(=O)(=O)c2ccc(OC(F)F)cc2)C[C@@H]1n1nc(CC(=O)O)c2ccc(F)cc21` on CRTH2 (Homo sapiens (Human), UniProt Q9Y5Y4)?
**Result** < 100 nM

**Query** What measured Ki is associated with `CCOc1ccc(S(=O)(=O)N2C[C@@H](C)[C@@H](n3nc(CC(=O)O)c4c(C)cccc43)C2)cn1` on CRTH2 (Homo sapiens (Human), UniProt Q9Y5Y4)?
**Result** 100 to 5000 nM

**Query** What measured Ki is associated with `CCOc1ccc(S(=O)(=O)N2C[C@@H](n3nc(CC(=O)O)c4ccccc43)[C@@H]3COC[C@@H]32)cc1` on CRTH2 (Homo sapiens (Human), UniProt Q9Y5Y4)?
**Result** 100 to 5000 nM

----------
- target.or.test.system: Human DP1 receptor (Homo sapiens (Human), UniProt Q13258)
- Sequence (Q13258 whole entry): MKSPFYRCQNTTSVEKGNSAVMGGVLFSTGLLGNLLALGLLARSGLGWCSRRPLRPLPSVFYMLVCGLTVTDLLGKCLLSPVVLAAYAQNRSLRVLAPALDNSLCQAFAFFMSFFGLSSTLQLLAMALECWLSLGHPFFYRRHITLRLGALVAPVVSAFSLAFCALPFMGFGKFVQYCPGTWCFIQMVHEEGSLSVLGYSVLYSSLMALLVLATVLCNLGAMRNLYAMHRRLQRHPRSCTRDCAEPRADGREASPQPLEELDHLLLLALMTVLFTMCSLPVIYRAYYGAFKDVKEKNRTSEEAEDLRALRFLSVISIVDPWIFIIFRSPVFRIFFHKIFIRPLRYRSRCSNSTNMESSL
- experiment: Human DP1 inhibitory activity in DP1-expressing cell (PGD2-induced cAMP)
- Assay type: cell-based
- condition.summary: category of cAMP IC50, human DP1 receptor expressing Jurkut cell
Listed here are compounds together with their documented IC50.

>>> readout_value("CCOc1ccc(S(=O)(=O)N2C[C@H](n3nc(CC(=O)O)c4ccccc43)[C@@H](C)[C@@H]2C(N)=O)cc1")
"100 to 5000 nM"

**Query** Item under review: `CC(C)Oc1ccc(S(=O)(=O)N2C[C@@H](C)[C@@H](n3nc(CC(=O)O)c4cccc(Cl)c43)C2)cc1` . Reported IC50?
**Result** 100 to 5000 nM

**Query** Item under review: `CCOc1ccc(S(=O)(=O)N2C[C@@H](C)[C@@H](n3nc(CC(=O)O)c4ccccc43)C2)c(/C=C/c2ccccc2)c1` . Reported IC50?
**Result** 100 to 5000 nM

**Query** Item under review: CC(C)C1CC1S(=O)(=O)N1C[C@@H](C)[C@@H](n2nc(CC(=O)O)c3ccccc32)C1 (some centres unmarked) . Reported IC50?
**Result** 100 to 5000 nM

**Query** Item under review: `CCOc1ccc(S(=O)(=O)N2C[C@@H](C)[C@@H](n3nc(CC(=O)O)c4ccc(C5=CCCCC5)cc43)C2)cc1` . Reported IC50?
**Result** < 100 nM

**Query** Item under review: `CC(C)Oc1ccc(S(=O)(=O)N2C[C@H](n3nc(CC(=O)O)c4ccc(F)cc43)C[C@@H]2COc2cccc(F)c2)cc1` . Reported IC50?
**Result** < 100 nM

**Query** Item under review: `CC(C)Oc1ccc(S(=O)(=O)N2C[C@@H](C)[C@@H](n3nc(CC(=O)O)c4cc(C#N)ccc43)C2)cc1` . Reported IC50?
**Result** < 100 nM

**Query** Item under review: `CC(C)Oc1ccc(S(=O)(=O)N2C[C@@H](C)[C@@H](n3nc(CC(=O)NS(C)(=O)=O)c4ccc(F)cc43)C2)cc1` . Reported IC50?
**Result** 100 to 5000 nM

**Query** Item under review: `CC(C)Oc1ccc(S(=O)(=O)N2C[C@H](n3nc(CC(=O)O)c4ccc(F)cc43)C[C@@H]2Cn2ccnc2)cc1` . Reported IC50?
**Result** 100 to 5000 nM

**Query** Item under review: `CCOc1ccc(S(=O)(=O)N2C[C@H](n3nc(CC(=O)O)c4ccccc43)C[C@@H]2CC2COC2)cc1` . Reported IC50?
**Result** 100 to 5000 nM

**Query** Item under review: `CC(C)Oc1ccc(S(=O)(=O)N2[C@@H]3CC[C@H]2C[C@@H](n2nc(CC(=O)O)c4ccc(F)cc42)C3)cc1` . Reported IC50?
**Result** < 100 nM

**Query** Item under review: `O=C(O)Cc1nn([C@@H]2C[C@H]3CC[C@@H](C2)N3S(=O)(=O)c2ccc(F)cc2)c2cc(F)ccc12` . Reported IC50?
**Result** 100 to 5000 nM

**Query** Item under review: `CCOc1ccc(S(=O)(=O)N2C[C@@H](C)[C@H](n3nc(CC(=O)O)c4ccccc43)C2)cc1` . Reported IC50?
**Result** 100 to 5000 nM

**Query** Item under review: `Cc1ccc(S(=O)(=O)N2C[C@H](n3c(C)c(CC(=O)O)c4ccccc43)C[C@@H]2C)cc1` . Reported IC50?
**Result** 100 to 5000 nM

**Query** Item under review: `COc1ccc(S(=O)(=O)N2C[C@@H](C)[C@@H](n3nc(CC(=O)O)c4ccccc43)C2)nc1` . Reported IC50?
**Result** 100 to 5000 nM

**Query** Item under review: `CCC[C@@H]1CN(S(=O)(=O)c2ccc(OC(C)C)cc2)C[C@@H]1n1nc(CC(=O)O)c2ccc(F)cc21` . Reported IC50?
**Result** < 100 nM

----------
- target.or.test.system: Human DP1 receptor (Homo sapiens (Human), UniProt Q13258)
- experiment: Human DP1 inhibitory activity in DP1-expressing cell (PGD2-induced cAMP)
- Type: cell-based
- condition.summary: category of cAMP IC50, human DP1 receptor expressing Jurkut cell
pIC50: −log10 of the molar value.
Listed here are compounds together with their documented pIC50.

Here's what some known entries look like.
>>> readout_value("CC(C)Oc1ccc(S(=O)(=O)N2C[C@@H](N3CCCC3)[C@@H](n3nc(CC(=O)O)c4ccc(F)cc43)C2)cc1")
"5.30 to 7.00"
>>> readout_value("Cc1ccc2c(CC(=O)O)nn([C@@H]3C[C@H](C)N(S(=O)(=O)c4ccc(OC(C)C)cc4)C3)c2c1")
"> 7.00"

Here is the next item to consider.
**Query** What measured pIC50 is associated with Cc1ccc2c(CC(=O)O)nn([C@H]3CN(S(=O)(=O)c4ccc(OC(C)C)cc4)C[C@H]3C)c2c1 [Compound I-62] on Human DP1 receptor (Homo sapiens (Human), UniProt Q13258)?
**Result** > 7.00
